# System: Enterococcus
# ASSAY_OVERVIEW: Antibacterial activity against Enterococcus 60 assessed as bacterial growth inhibition in presence of 50 ug/ml calcium ions by CLSI protocol based broth microdilution method
# Format: functional
For each of the compounds below, state its MIC.
Your answer is read as µg/mL, so omit the unit and give the number.

Challenge: What does the record list as MIC for CCCCCCCCCC(=O)N[C@@H](Cc1c[nH]c2ccccc12)C(=O)N[C@@H](CC(N)=O)C(=O)N[C@@H](CC(=O)O)C(=O)N[C@@H]1C(=O)NCC(=O)N[C@@H](CN)C(=O)N[C@@H](CC(=O)O)C(=O)N[C@H](C)C(=O)N[C@@H](CC(=O)O)C(=O)NCC(=O)N[C@H](CO)C(=O)N[C@@H]([C@@H](C)CC(=O)O)C(=O)N[C@@H](CC(=O)c2ccccc2N)C(=O)O[C@@H]1C ?
Response given: 8

Challenge: Entry under review: CCCCCCCCCC(=O)N[C@@H](Cc1c[nH]c2ccccc12)C(=O)N[C@@H](CC(N)=O)C(=O)N[C@@H](CC(=O)O)C(=O)N[C@@H]1C(=O)NCC(=O)N[C@@H](CCN)C(=O)N[C@@H](CC(=O)O)C(=O)N[C@H](C)C(=O)N[C@@H](CC(=O)O)C(=O)NCC(=O)N[C@H](CO)C(=O)N[C@@H]([C@@H](C)CC(=O)O)C(=O)N[C@@H](CC(=O)c2ccccc2N)C(=O)O[C@@H]1C . Reported MIC?
Response given: 8

----------
# Test system: Enterococcus
# ASSAY_OVERVIEW: Antibacterial activity against Enterococcus 60 assessed as bacterial growth inhibition in presence of 50 ug/ml calcium ions by CLSI protocol based broth microdilution method
# Assay type: functional
Please go through the items and note down their MIC.
Give your result in µg/mL as a bare value.

Challenge: Query: MIC; subject: CCCCCCCCCC(=O)N[C@@H](Cc1c[nH]c2ccccc12)C(=O)N[C@H](CC(N)=O)C(=O)N[C@@H](CC(=O)O)C(=O)N[C@@H]1C(=O)NCC(=O)N[C@@H](CCCN)C(=O)N[C@@H](CC(=O)O)C(=O)N[C@H](C)C(=O)N[C@@H](CC(=O)O)C(=O)NCC(=O)N[C@H](CO)C(=O)N[C@@H]([C@H](C)CC(=O)O)C(=O)N[C@@H](CC(=O)c2ccccc2N)C(=O)O[C@@H]1C
Response given: 2

Challenge: Which MIC reading was recorded for the molecule C[C@H]1NC(=O)[C@H](CC(=O)O)NC(=O)[C@H](CCCN)NC(=O)CNC(=O)[C@@H](NC(=O)[C@H](CC(=O)O)NC(=O)[C@H](CC(N)=O)NC(=O)[C@H](Cc2c[nH]c3ccccc23)NC(=O)c2ccc(C#Cc3ccccc3)cc2)[C@@H](C)OC(=O)[C@H](CC(=O)c2ccccc2N)NC(=O)[C@H]([C@@H](C)CC(=O)O)NC(=O)[C@@H](CO)NC(=O)CNC(=O)[C@H](CC(=O)O)NC1=O ?
Response given: 2

Challenge: Recorded MIC for CCCCCCCCCC(=O)N[C@@H](Cc1c[nH]c2ccccc12)C(=O)N[C@@H](CC(N)=O)C(=O)N[C@@H](CC(=O)O)C(=O)N[C@@H]1C(=O)NCC(=O)N[C@@H](CCSC)C(=O)N[C@@H](CC(=O)O)C(=O)N[C@H](C)C(=O)N[C@@H](CC(=O)O)C(=O)NCC(=O)N[C@H](CO)C(=O)N[C@@H]([C@@H](C)CC(=O)O)C(=O)N[C@@H](CC(=O)c2ccccc2N)C(=O)O[C@@H]1C , please?
Response given: 32

Challenge: For the molecule C[C@H]1NC(=O)[C@H](CC(=O)O)NC(=O)[C@H](CCCN)NC(=O)CNC(=O)[C@@H](NC(=O)[C@H](CC(=O)O)NC(=O)[C@H](CC(N)=O)NC(=O)[C@H](Cc2c[nH]c3ccccc23)NC(=O)c2ccc(C#CC#Cc3ccccc3)cc2)[C@@H](C)OC(=O)[C@H](CC(=O)c2ccccc2N)NC(=O)[C@H]([C@@H](C)CC(=O)O)NC(=O)[C@@H](CO)NC(=O)CNC(=O)[C@H](CC(=O)O)NC1=O , what MIC is on record?
Response given: 1

Challenge: MIC lookup needed for CCCCCCCCCC(=O)N[C@@H](Cc1ccc2ccccc2c1)C(=O)N[C@@H](CC(N)=O)C(=O)N[C@@H](CC(=O)O)C(=O)N[C@@H]1C(=O)NCC(=O)N[C@@H](CCCN)C(=O)N[C@@H](CC(=O)O)C(=O)N[C@H](C)C(=O)N[C@@H](CC(=O)O)C(=O)NCC(=O)N[C@H](CO)C(=O)N[C@@H]([C@@H](C)CC(=O)O)C(=O)N[C@@H](CC(=O)c2ccccc2N)C(=O)O[C@@H]1C , thanks.
Response given: 0.5

Challenge: Can you share its MIC? I mean this molecule: CCCCCCCCCC(=O)N[C@@H](Cc1c[nH]c2ccccc12)C(=O)N[C@@H](CC(N)=O)C(=O)N[C@@H](CC(=O)O)C(=O)N[C@@H]1C(=O)NCC(=O)N[C@@H](C)C(=O)N[C@@H](CC(=O)O)C(=O)N[C@H](C)C(=O)N[C@@H](CC(=O)O)C(=O)NCC(=O)N[C@H](CO)C(=O)N[C@@H]([C@@H](C)CC(=O)O)C(=O)N[C@@H](CC(=O)c2ccccc2N)C(=O)O[C@@H]1C
Response given: 1
